Reference for the values: BigSolDB 2.1

# condition label: in acetone, 318.15 K
property measured: solubility (mole fraction)
# output: bare number, no unit

Record CCCN1CCCC[C@H]1C(=O)Nc1c(C)cccc1C . Reported solubility (mole fraction): 0.0344

---

# condition label: in DMAc, 278.15 K
property measured: solubility (mole fraction)
# output: bare number, no unit

Record CCC1=C(C)CN(C(=O)NCCc2ccc(S(=O)(=O)NC(=O)NC3CCC(C)CC3)cc2)C1=O (stereo unspecified) . Reported solubility (mole fraction): 0.0106

---

# condition label: in water, 343.15 K
property measured: solubility (mole fraction)
# output: bare number, no unit

Record O=C1N2CN3C(=O)N4CN5C(=O)N6CN7C(=O)N8CN9C(=O)N%10CN%11C(=O)N%12CN1C1C2N2CN%13C(=O)N(CN%14C(=O)N(CN%15C(=O)N(CN%16C(=O)N(CN%17C(=O)N(CN1C2=O)C%12C%11%17)C%10C9%16)C8C7%15)C6C5%14)C4C3%13 (stereo unspecified) . Reported solubility (mole fraction): 0.00573

---

# condition label: in 1,2-dimethoxyethane, 293.15 K
property measured: solubility (mole fraction)
# output: bare number, no unit

Record CC1=C(/C=C/C(C)=C/C=C/C(C)=C/C=C/C=C(C)/C=C/C=C(C)/C=C/C2=C(C)CCCC2(C)C)C(C)(C)CCC1 . Reported solubility (mole fraction): 6.3e-05

---

# condition label: in water, 303.2 K
Please go through the items and note down their solubility (mole fraction).
# output: bare number, no unit

Record Cc1ccc(-c2cc(C(F)(F)F)nn2-c2ccc(S(N)(=O)=O)cc2)cc1 . Reported solubility (mole fraction): 9.16e-08

Record O=C1NC(=O)C(c2ccccc2)(c2ccccc2)N1 . Reported solubility (mole fraction): 1.72e-06

Record O=C1Nc2ccc(Cl)cc2C(c2ccccc2Cl)=NC1O (stereo not drawn) . Reported solubility (mole fraction): 3e-06

---

# condition label: in acetone, 293.15 K
Please go through the items and note down their solubility (mole fraction).

Record F[P-](F)(F)(F)(F)F.F[P-](F)(F)(F)(F)F.c1cc[n+](CCCCCC[n+]2ccccc2)cc1 . Reported solubility (mole fraction): 0.00402

Record CCCN1CCCC[C@H]1C(=O)Nc1c(C)cccc1C . Reported solubility (mole fraction): 0.012

Record CC1=C(/C=C/C(C)=C/C=C/C(C)=C/C=C/C=C(C)/C=C/C=C(C)/C=C/C2=C(C)CCCC2(C)C)C(C)(C)CCC1 . Reported solubility (mole fraction): 1.4e-05

---

# condition label: in acetone, 278.15 K
property measured: solubility (mole fraction)
# output: bare number, no unit

Record CCCN1CCCC[C@H]1C(=O)Nc1c(C)cccc1C . Reported solubility (mole fraction): 0.00654

---

# condition label: in water, 296.2 K
property measured: solubility (mole fraction)
# output: bare number, no unit

Record C1CCCC1 . Reported solubility (mole fraction): 4.17e-05

---

# condition label: in DMAc, 308.15 K
property measured: solubility (mole fraction)
# output: bare number, no unit

Record CCC1=C(C)CN(C(=O)NCCc2ccc(S(=O)(=O)NC(=O)NC3CCC(C)CC3)cc2)C1=O (stereo unspecified) . Reported solubility (mole fraction): 0.0259

---

# condition label: in ethanol, 286.2 K
property measured: solubility (mole fraction)
# output: bare number, no unit

Record C[C@@H]1CC[C@H]2[C@@H](C)C(=O)O[C@@H]3O[C@@]4(C)CC[C@@H]1[C@]32OO4 . Reported solubility (mole fraction): 0.00181
